Data origin: paper PMC8894159

assay: Single ascending dose plasma pharmacokinetics in healthy volunteers; format: in vivo; details: human, single-dose oral solution, fasted, range across 1.25-20 mg, read-out: apparent terminal elimination t1/2

{"columns": ["Structure String", "half-life"],
 "data": [
  ["Cl.N#Cc1cccc(-c2ccc3ncc(-c4cc(F)cc(F)c4)c(N4CCC(N)CC4)c3c2)c1O", "22 to 29 h"]
]}

----------
assay: Single ascending dose plasma pharmacokinetics in healthy volunteers; format: in vivo; conditions: human, oral, single dose 40 mg capsules, fasted, mean ± SD

{"columns": ["Compound", "Cmax"],
 "data": [
  ["Cl.N#Cc1cccc(-c2ccc3ncc(-c4cc(F)cc(F)c4)c(N4CCC(N)CC4)c3c2)c1O [paltusotine]", "185 ng/mL"]
]}
